tested on: Escherichia Coli NIHJ JC-2 (IFO 12734); test: antimicrobial activity, serial dilution method on agar plate; format: cell-based; details: Escherichia coli, inoculum 1 × 10^6 cells/ml; read-out: Minimum Inhibitory Concentration
experimental-readout: MIC (µg/mL)
Answer in µg/mL, number only, no unit symbol.

So what does the record say about MIC for CC1CCc2c(N3CCN(C)CC3)c(F)cc3c(=O)c(C(=O)O)cn1c23 (stereo not shown) ?
0.4

For the compound CC1Cc2c(N3CCN(C)CC3)c(F)cc3c(=O)c(C(=O)O)cn1c23 (stereo not shown) , what MIC is on record?
0.1

Need MIC of "CCn1cc(C(=O)O)c(=O)c2ccc(C)nc21" , thanks.
3.1

Report MIC for CC1CCc2c(N3CCN(C=O)CC3)c(Cl)cc3c(=O)c(C(=O)O)cn1c23 (stereo not shown) please.
0.8

Quick one: MIC of CC1Cc2c(N3CCN(C)CC3)c(Cl)cc3c(=O)c(C(=O)O)cn1c23 (stereo not shown) ?
0.2

Need MIC of CC1CCc2c(N3CCN(C)CC3)c(Cl)cc3c(=O)c(C(=O)O)cn1c23 (stereo not shown) , thanks.
0.2

Sample CC1CCc2cc(F)cc3c(=O)c(C(=O)O)cn1c23 (stereo not shown) — what was its MIC?
0.4

====

experiment: in vitro; conditions: human, 20% human serum, Inactivation Ratio
experimental-readout: fraction unbound at 2 h

Requested field: fraction unbound at 2 h. Item: "CCn1cc(C(=O)O)c(=O)c2ccc(C)nc21"
0.565

====

assay: in vitro; settings: human, 10% human serum
experimental-readout: fraction unbound at 2 h

Entry CCn1cc(C(=O)O)c(=O)c2ccc(C)nc21 [E] has what fraction unbound at 2 h?
0.528

====

experiment: in vitro; settings: human, 100% human serum, Inactivation Ratio
experimental-readout: fraction unbound at 2 h
Kindly provide the number alone.

Can you share its fraction unbound at 2 h? I mean this compound: "CCn1cc(C(=O)O)c(=O)c2ccc(C)nc21"
0.387

====

test system: Salmonella typhi 0-901 (NCTC 8393); assay: antimicrobial activity, serial dilution method on agar plate; type: cell-based; conditions: Salmonella enterica, read-out: Minimum Inhibitory Concentration, inoculum 1 × 10^6 cells/ml
experimental-readout: MIC (µg/mL)
Please state the figure in µg/mL; there is no need to write the unit.

Can you look up MIC on Salmonella typhi 0-901 (NCTC 8393) for CC1Cc2c(N3CCN(C)CC3)c(Cl)cc3c(=O)c(C(=O)O)cn1c23 (centres unmarked) ?
0.1

Give the reported MIC for CC1CCc2c(N3CCN(C=O)CC3)c(Cl)cc3c(=O)c(C(=O)O)cn1c23 (centres unmarked) (system: Salmonella typhi 0-901 (NCTC 8393)).
0.2

Field: MIC (Salmonella typhi 0-901 (NCTC 8393)). Entry: CC1Cc2c(Cl)ccc3c(=O)c(C(=O)O)cn1c23 (centres unmarked)
0.8

Query the reported MIC for Salmonella typhi 0-901 (NCTC 8393); item: CC1CCc2cc(F)cc3c(=O)c(C(=O)O)cn1c23 (centres unmarked)
0.2

// map "CCn1cc(C(=O)O)c(=O)c2ccc(C)nc21" to recorded MIC (system: Salmonella typhi 0-901 (NCTC 8393))
3.1

====

tested on: Aeromonas hydrophila IFO 12981; experiment: antimicrobial activity on bacteria which cause infectious diseases in fish; type: cell-based; settings: IFO12981, inoculum 10^6, read-out: Minimum Inhibitory Concentration
experimental-readout: MIC (µg/mL)
Just the number please, in µg/mL, no unit attached.

Please provide the recorded MIC for "O=C(O)c1cn2c3c(c(N4CCNCC4)ccc3c1=O)CCC2" , tested on Aeromonas hydrophila IFO 12981.
0.4

Checklist item: MIC tested on Aeromonas hydrophila IFO 12981, entry CC1CCc2c(N3CCNCC3)ccc3c(=O)c(C(=O)O)cn1c23 (stereo not shown) , value?
0.2

Observed MIC on Aeromonas hydrophila IFO 12981 for "CCn1cc(C(=O)O)c(=O)c2ccc(C)nc21" , please.
0.2

MIC of CC1Cc2c(N3CCNCC3)ccc3c(=O)c(C(=O)O)cn1c23 (stereo not shown) on Aeromonas hydrophila IFO 12981?
0.2

====

test system: Proteus morganii IID Kono; assay: antimicrobial activity, serial dilution method on agar plate; format: cell-based; settings: Morganella morganii, read-out: Minimum Inhibitory Concentration, inoculum 1 × 10^6 cells/ml
experimental-readout: MIC
Number plus unit, in that order.

Record request: MIC value, item CC1CCc2c(N3CCNCC3)ccc3c(=O)c(C(=O)O)cn1c23 (stereo not shown) [A]
3.1 µg/mL

Quick check: MIC of O=C(O)c1cn2c3c(c(N4CCNCC4)ccc3c1=O)CCC2 [B] ?
6.3 µg/mL

For the compound CC1Cc2c(N3CCNCC3)ccc3c(=O)c(C(=O)O)cn1c23 (stereo not shown) [C] , what MIC is on record?
3.1 µg/mL

# get_value(readout='MIC', item= CCn1cc(C(=O)O)c(=O)c2ccc(C)nc21 [E] )
3.1 µg/mL

====

experiment: inactivation ratio by human serum protein; conditions: 20% human serum, 3.1 mcg/ml, 37° C.
experimental-readout: fraction unbound at 2 h
Answer using only a numeral; do not append any unit.

Given CC1CCc2c(N3CCNCC3)ccc3c(=O)c(C(=O)O)cn1c23 (stereo not shown) , state its recorded fraction unbound at 2 h.
1

====

system: Klebsiella pneumoniae; assay: antimicrobial activity, serial dilution method on agar plate; assay type: cell-based; conditions: inoculum 1 × 10^8 cells/ml, read-out: Minimum Inhibitory Concentration
experimental-readout: log10 of MIC (log10 of the value in µg/mL)
Heads up, the numbers here are log10 of MIC in µg/mL units.

Entry CC1(C)SC2C(NC(=O)C(NC(=O)c3cn4c5c(c(N6CCNCC6)cc(Cl)c5c3=O)CCC4)c3ccccc3)C(=O)N2C1C(=O)O (centres unmarked) [Compound K, reference compound] : reported log10 of MIC = ?
0.80

Form field: reported log10 of MIC of "O=C(O)c1cn2c3c(c(N4CCN(Cc5ccccc5)CC4)ccc3c1=O)CCC2"
0.49

Tell me the measured log10 of MIC of "O=C(O)c1cn2c3c(c(N4CCN(C(=O)c5ccccc5)CC4)ccc3c1=O)CCC2" , please.
0.80

If you can, please state the reported log10 of MIC value of CC1Cc2c(Cl)ccc3c(=O)c(C(=O)O)cn1c23 (centres unmarked) .
0.49

Look at this compound and give its reported log10 of MIC. CC1CCc2c(N3CCN(C=O)CC3)c(Cl)cc3c(=O)c(C(=O)O)cn1c23 (centres unmarked)
-0.10

Would you mind telling me what log10 of MIC value was observed for CC1CCc2c(N3CCN(C)CC3)c(Cl)cc3c(=O)c(C(=O)O)cn1c23 (centres unmarked) ?
-0.70

Fill in: log10 of MIC of CC1CCc2cc(F)cc3c(=O)c(C(=O)O)cn1c23 (centres unmarked) is ___
-0.10

Would you kindly share the measured log10 of MIC for CC1CCc2c(N3CCN(C(=O)C(F)(F)F)CC3)c(Cl)cc3c(=O)c(C(=O)O)cn1c23 (centres unmarked) ?
-0.41

Name the recorded log10 of MIC for C=CCN1CCN(c2c(Cl)cc3c(=O)c(C(=O)O)cn4c3c2CCC4C)CC1 (centres unmarked) .
-0.11

Consider the compound shown here: "CS(=O)(=O)N1CCN(c2ccc3c(=O)c(C(=O)O)cn4c3c2CCC4)CC1" What is its recorded log10 of MIC?
0.80

Name the recorded log10 of MIC for CC1(C)SC2C(NC(=O)C(NC(=O)c3cn4c5c(c(N6CCNCC6)ccc5c3=O)CCC4)c3ccccc3)C(=O)N2C1C(=O)O (centres unmarked) .
-0.10

# query: log10 of MIC of entry CC1CCc2c(N3CCN(C(=O)C(F)(F)C(F)(F)F)CC3)c(Cl)cc3c(=O)c(C(=O)O)cn1c23 (centres unmarked)
-0.41

# query: log10 of MIC of entry CC1Cc2c(N3CCN(C)CC3)c(F)cc3c(=O)c(C(=O)O)cn1c23 (centres unmarked)
-0.70

Look up log10 of MIC: CC1CCc2c(N3CCN(C)CC3)c(F)cc3c(=O)c(C(=O)O)cn1c23 (centres unmarked)
-0.40

Entry CC1CCc2c(N3CCN(CCO)CC3)c(F)cc3c(=O)c(C(=O)O)cn1c23 (centres unmarked) has what log10 of MIC?
-0.11

Endpoint output: log10 of MIC of CC1(C)SC2C(NC(=O)C(NC(=O)c3cn4c5c(c(N6CCN(S(C)(=O)=O)CC6)ccc5c3=O)CCC4)c3ccccc3)C(=O)N2C1C(=O)O (centres unmarked) [Compound J, reference compound] . Value?
0.80

Dear colleague, I am looking for the recorded log10 of MIC of the following compound: CC1CCc2c(N3CCN(CC(F)(F)F)CC3)c(Cl)cc3c(=O)c(C(=O)O)cn1c23 (centres unmarked)
-0.41
